Source of measurements: the Deep4Chem optical property database

Assay: solvent given as SMILES
Settings: in ClCCl
measurement name: emission maximum (nm)
Express the result in nm but write the number alone.

The compound listed as CCc1c(C)[nH]c(C2=[N+]3C(=Cc4c(C)c(CC)c(C)n4[B-]3(F)F)c3ccccc32)c1C has a reported emission maximum of 650

// emission maximum lookup, compound = CCCCCCc1ccc2c(/C=N/c3cc(/N=C/c4c(O)ccc5cc(CCCCCC)ccc45)cc(/N=C/c4c(O)ccc5cc(CCCCCC)ccc45)c3)c(O)ccc2c1 , result: 511

emission maximum reading for CC(=O)c1c(N[C@@H](Cc2ccccc2)C(=O)O)c2ccc(N(C)C)cc2oc1=O : 450

The recorded emission maximum for CCC1=C(C)C2=Cc3c4ccccc4c4n3[B-](c3ccc5ccc6cccc7ccc3c5c67)(Oc3ccccc3-4)[N+]2=C1C (stereo not drawn) is 640

The value of emission maximum measured for the compound COc1ccc(-c2c3ccccc3c(-c3ccc(OC)cc3)c3ccccc23)cc1 turned out to be 427

For record CCCCCCc1ccc2c3c(ccc2c1)O[B-](F)(F)[N+](c1cc([N+]2=Cc4c(ccc5cc(CCCCCC)ccc45)O[B-]2(F)F)cc([N+]2=Cc4c(ccc5cc(CCCCCC)ccc45)O[B-]2(F)F)c1)=C3 the listed emission maximum is 495

According to the records, this compound CN(C)c1cc(C#N)c(N(C)C)c(C#N)c1 displays emission maximum of 522.74

According to the records, this compound N#C/C(=C\c1ccc(C#N)cc1)c1nc(-c2ccccc2)cs1 displays emission maximum of 490

###

Experiment: solvent given as SMILES
Conditions: in OCC(O)CO
I'd appreciate it if you could supply emission maximum values for the items below.
// return numeric value only (unit: nm, not printed)

The compound listed as CCN(CC)c1ccc2cc(/C=C/c3cccc[n+]3CCCS(=O)(=O)[O-])c(=O)oc2c1 has a reported emission maximum of 625

# compound Nc1c(-c2nn([C@H]3C[C@H](O)[C@@H](CO)O3)c3ncnc(N)c23)ccc2ccccc12 ; its emission maximum = 404

Recorded result, Nc1ncnc2c1c(-c1ccc3ccccc3c1)nn2[C@H]1C[C@H](O)[C@@H](CO)O1 , emission maximum: 372

For reference, reported emission maximum for O=c1cc(C(F)(F)F)c2cc3c4c(c2o1)CCCN4CCC3 stands at 546

Notebook: CN(C)c1cc(C#N)c(N(C)C)c(C#N)c1 , emission maximum read as 547.35

Measured emission maximum of CCOC(=O)C1CC(c2c(C#N)c(C)nn2-c2ccccc2)=CN1c1ccc(Br)cc1 (configuration not stated) : 492

Entry under test: N#Cc1cccc2c(N)c(-c3nn([C@H]4C[C@H](O)[C@@H](CO)O4)c4ncnc(N)c34)ccc12 . Its emission maximum was 522

###

Exercise: state measured emission maximum for each of the compounds provided.
Test: solvent given as SMILES
Conditions: in ClC(Cl)Cl
The figure you give is taken to be in nm; do not add the unit.

Input CCCCCCCCOc1ccc(-c2c3c4n(c(-c5ccc(OCCCCCCCC)cc5)c3c3n2[B-](c2ccccc2)(c2ccccc2)[n+]2c(ccc5cc(C(C)(C)C)ccc52)C=3C#N)[B-](c2ccccc2)(c2ccccc2)[n+]2c(ccc3cc(C(C)(C)C)ccc32)C=4C#N)cc1 . Output emission maximum: 831

emission maximum measured on CCC[n+]1ccc(/C=C/c2ccc(N(C)C)cc2)cc1 = 560

Just so you know, measured emission maximum for CCCCCCCCCCCCC1(CCCCCCCCCCCC)c2cc(-c3ccc(C=C4C(=O)c5ccccc5C4=O)cc3)ccc2-c2ccc(-c3ccc(C=C4C(=O)c5ccccc5C4=O)cc3)cc21 came out at 529

emission maximum recorded for this compound, CCCCCCN1C(=O)C(c2ccc(-n3c4ccccc4c4ccccc43)cc2)=C(c2ccc(-n3c4ccccc4c4ccccc43)cc2)C1=O , is 626

###

Experiment: solvent given as SMILES
Details: in C1CCCCC1
Category scheme (emission maximum): class 0: < 400 nm; class 1: ≥ 400 nm and < 500 nm; class 2: ≥ 500 nm

-- ask Lab note: sort COc1cccc(/C=C/c2ccccc2)c1 into the matching emission maximum band.
-- reply class 0

-- ask Lab log: CN(C)c1ccc(/C=C/c2nc3c(ccc4ccccc43)s2)cc1 — assign emission maximum category
-- reply class 1

-- ask // return the class label for Cc1cc(C)c(B2c3cc(C(C)(C)C)cc4ccc5ccc6cc(C(C)(C)C)cc2c6c5c34)c(C)c1
-- reply class 1

-- ask Hey, which category is O=Cc1ccc(C2=C3C=c4c(oc5ccccc45)=[N+]3[B-](F)(F)n3c2cc2c4ccccc4oc23)cc1 in, do you know?
-- reply class 2

-- ask Please report the category associated with Cc1cccc(NC(=O)c2ccc(N(C)C)cc2)c1 , nothing else.
-- reply class 1

-- ask Band for the recorded emission maximum of Cc1ccc(C2=C3C=CC(c4ccccc4)=[N+]3[B-](F)(F)n3c(Cl)ccc32)cc1 ?
-- reply class 2

-- ask Note: place this compound into its band. Item: Cc1cccc(C2=CC3=C(c4c(C)cc(C)cc4C)c4cc(-c5cccc(C)c5)c(-c5cccc(C)c5)n4[B-](F)(F)[N+]3=C2c2cccc(C)c2)c1
-- reply class 2

-- ask Place this compound in its band: CCCC1(CCC)c2cc(C#N)ccc2-c2ccc(C#N)cc21
-- reply class 0

-- ask Which category does the recorded emission maximum put O=S1(=O)c2ccccc2-c2c1c1ccccc1p2-c1ccccc1 (stereo unspecified) in?
-- reply class 1

-- ask Exam item: assign CC(C)[Si]1(C(C)C)c2cc(C#N)ccc2-c2ccc(N(c3ccccc3)c3ccccc3)cc21 to the correct category.
-- reply class 1

-- ask Kindly identify the class of N#Cc1ccc(-c2nc(-c3ccccc3)c3ccccn23)cc1 .
-- reply class 1

-- ask Into which category would you place Nc1cccc2c1C(=O)c1ccccc1-2 ?
-- reply class 1

-- ask Which class is correct for the following compound? Cc1ccc(C2=C3C=C(I)C=[N+]3[B-](F)(F)n3cccc32)cc1
-- reply class 2

-- ask Could you place CN(C)c1ccc2nc3c(cc2c1)c(-c1ccccc1)nn3-c1ccccc1 in its proper category? Many thanks.
-- reply class 1

-- ask State the class of the compound shown: c1ccc(N2c3ccc4ccccc4c3-c3c4ccccc4nc[n+]3[B-]2(c2ccccc2)c2ccccc2)cc1
-- reply class 2

-- ask Band assignment needed for COc1c(-c2ccc(N(C)C)cc2)oc2ccccc2c1=O please.
-- reply class 1

-- ask Band of CCOC(=O)COc1ccccc1C(c1c(C)[nH]c2ccccc12)c1c(C)[nH]c2ccccc12 ?
-- reply class 0

-- ask Hi, small favor: classify CN(C)c1ccc(-c2cc(-c3ccc4ccccc4c3)nc(-c3ccccc3)n2)cc1 by its emission maximum when you get a moment.
-- reply class 1

###

Would you mind telling me the reported emission maximum of each entry?
Test: solvent given as SMILES
Conditions: in ClC(Cl)Cl

So, O=Cc1ccc(C#CC(C#Cc2ccc(C=O)o2)=Cc2ccc(C=C(C#Cc3ccc(C=O)o3)C#Cc3ccc(C=O)o3)cc2)o1 ? Its emission maximum was 518 nm

The measured emission maximum associated with CC1=[N+]2C(=C(c3ccc(C#N)cc3)c3ccc(C)n3[B-]2(F)F)C=C1 reads 543 nm

COc1cc(C=C(C#Cc2ccccc2)C#Cc2ccccc2)c(OC)cc1C=C(C#Cc1ccccc1)C#Cc1ccccc1 yielded emission maximum of 522 nm

Recorded result, c1ccc(-c2cc(-c3ccc4c(c3)C3(c5ccccc5-c5ccccc53)c3cc(-c5cc(-c6ccccn6)nc(-c6ccccn6)c5)ccc3-4)cc(-c3ccccn3)n2)nc1 , emission maximum: 395 nm

###

Test: solvent given as SMILES
Details: in CO
So I've got a bunch of compounds here, and I need their emission maximum values.
Enter your answer as a number in nm; do not include the unit.

The compound listed as N#CSC1=CC2=C(c3c(Cl)cccc3Cl)c3cc(SC#N)c(NCc4ccccc4)n3[B-](F)(F)[N+]2=C1NCc1ccccc1 has a reported emission maximum of 646

Entry c1ccc(C2CCN3COc4c5ccccc5c5c6c7c(c2c3c46)C(c2ccccc2)CCN7CO5)cc1 (stereo not drawn) — recorded emission maximum = 598

What the record says about CC(C)(C)c1ccc2c(c1)c1cc(C(C)(C)C)ccc1n2-c1ccc(C#Cc2ccc(C#Cc3ccc(-n4c5ccc(C(C)(C)C)cc5c5cc(C(C)(C)C)ccc54)cc3)cc2)cc1 : emission maximum is 453

The compound listed as Nc1ncnc2c1c(-c1ccc3ccccc3c1)nn2[C@H]1C[C@H](O)[C@@H](CO)O1 has a reported emission maximum of 362

// field: emission maximum; key: CC1=CC(C)=[N+]2C1=C(C)c1cccn1[B-]2(F)F ; value = 497

get_value(item= CC1(C)C(/C=C/C=C/C=C/C=C2/N(c3ccc(S(=O)(=O)[O-])cc3)c3ccc(S(=O)(=O)[O-])cc3C2(C)C)=[N+](c2ccc(S(=O)(=O)[O-])cc2)c2ccc(S(=O)(=O)[O-])cc21 , readout=emission maximum) returns 782

For this compound ( O=Cc1ccc(C2=C3C=c4c(oc5ccccc45)=[N+]3[B-](F)(F)n3c2cc2c4ccccc4oc23)cc1 ), measured emission maximum is 609.5

Entry N#Cc1ccc(-c2nc(-c3ccccc3)c3ccccn23)cc1 — recorded emission maximum = 487
